molecular target: LAT1 in MCF-7 human breast cancer cells (Homo sapiens, UniProt Q01650); construct: wild-type MCF-7 human breast cancer cell line; endogenous in cells; host or cells: MCF-7 human breast cancer cells (wild type); test: cis-inhibition of [14C]-L-leucine uptake in MCF-7 cells; format: cell-based; conditions: MCF-7 cells
Sequence (Q01650 whole entry): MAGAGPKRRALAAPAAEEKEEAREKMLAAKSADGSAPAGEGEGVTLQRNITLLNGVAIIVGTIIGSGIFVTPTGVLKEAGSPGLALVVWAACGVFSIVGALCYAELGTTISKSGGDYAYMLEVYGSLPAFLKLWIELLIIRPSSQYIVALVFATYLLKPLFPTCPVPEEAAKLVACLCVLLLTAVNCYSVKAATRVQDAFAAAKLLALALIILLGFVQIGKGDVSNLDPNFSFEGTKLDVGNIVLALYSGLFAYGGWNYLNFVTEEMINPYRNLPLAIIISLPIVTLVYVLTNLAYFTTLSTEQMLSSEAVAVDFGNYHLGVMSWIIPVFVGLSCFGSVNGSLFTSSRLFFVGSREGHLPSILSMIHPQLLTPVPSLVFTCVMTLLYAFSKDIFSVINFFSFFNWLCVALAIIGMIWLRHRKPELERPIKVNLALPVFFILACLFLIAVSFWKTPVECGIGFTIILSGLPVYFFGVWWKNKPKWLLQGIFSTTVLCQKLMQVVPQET
Sequence (P08195 102-630 partner): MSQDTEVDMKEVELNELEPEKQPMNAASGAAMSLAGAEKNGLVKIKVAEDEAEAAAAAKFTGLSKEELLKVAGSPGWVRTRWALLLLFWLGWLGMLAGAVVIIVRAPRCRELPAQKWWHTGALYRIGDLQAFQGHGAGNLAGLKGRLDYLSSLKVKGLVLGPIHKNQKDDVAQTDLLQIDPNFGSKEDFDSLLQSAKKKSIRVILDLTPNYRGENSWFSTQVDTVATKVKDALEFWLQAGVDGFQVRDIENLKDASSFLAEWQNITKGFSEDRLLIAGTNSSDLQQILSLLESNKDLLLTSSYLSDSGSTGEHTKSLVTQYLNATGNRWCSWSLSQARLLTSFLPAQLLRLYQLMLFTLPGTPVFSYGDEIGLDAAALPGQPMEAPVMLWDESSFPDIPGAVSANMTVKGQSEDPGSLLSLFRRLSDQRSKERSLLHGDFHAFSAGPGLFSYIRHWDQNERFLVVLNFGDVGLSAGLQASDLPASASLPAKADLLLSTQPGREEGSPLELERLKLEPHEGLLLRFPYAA
Reported Endpoint: IC50 (µM)
// note: answer is a bare numeric in µM

Prompt: What does the record list as IC50 for CC(C)Cc1ccc(C(C)C(=O)Nc2cccc(C[C@H](N)C(=O)O)c2)cc1 (some centres unmarked) ?
Response: 20

Prompt: What about this molecule? CCCC(CCC)C(=O)Nc1cccc(C[C@H](N)C(=O)O)c1
Response: 81

Prompt: What about this molecule? COc1ccc2cc(C(C)C(=O)Nc3cccc(C[C@H](N)C(=O)O)c3)ccc2c1 (some centres unmarked)
Response: 5.6

Prompt: What about this molecule? CCCN(CCC)S(=O)(=O)c1ccc(C(=O)Nc2cccc(C[C@H](N)C(=O)O)c2)cc1
Response: 137

Prompt: What about this molecule? N[C@@H](Cc1cccc(NC(=O)c2ccccc2O)c1)C(=O)O
Response: 3.3

====

target: hLAT1/4F2hc (Homo sapiens, UniProt Q01650); construct: Invitrogen (host cells); experiment: cis-inhibition of [14C]-L-leucine uptake in HEK-hLAT1 cells; type: cell-based; conditions: HEK-hLAT1 cells; known substrates; read-out: IC50 of [14C]-L-leucine uptake
Sequence (Q01650 whole entry): as the sequence (Q01650 whole entry) above
Sequence (P08195 102-630 partner): as the sequence (P08195 102-630 partner) above
Reported Endpoint: IC50
Remember to put the unit after the number in your answer.

Prompt: What does the record list as IC50 for N[C@@H](Cc1c[nH]c2ccccc12)C(=O)O [Tryptophan, L-tryptophan, reference compound] ?
Response: 24 µM

Prompt: What about this compound? NC1(C(=O)O)CC2CCC1C2 (stereo not shown) [BCH, reference compound]
Response: 28 µM

Prompt: What about this compound? NCC1(CC(=O)O)CCCCC1 [Gabapentin, reference compound]
Response: 36 µM

Prompt: What about this compound? N[C@@H](Cc1ccc(O)c(O)c1)C(=O)O [L-DOPA, reference compound]
Response: 4.1 µM

====

biological target: hLAT1/4F2hc (Homo sapiens); construct: Invitrogen (host cells); experiment: Concentration-dependent cellular uptake into HEK-hLAT1 cells (LC-MS/MS, Michaelis-Menten); format: cell-based; conditions: difference in uptake HEK-hLAT1 vs HEK-MOCK, with docking poses; 2-100 μM curves
Reported Endpoint: interaction class with LAT1 (interaction and transportability)

Example entries begin here.
[[record]]
molecule_smiles = "N[C@@H](Cc1cccc(NC(=O)c2ccccc2O)c1)C(=O)O"
measured = "highest interactions"

[[record]]
molecule_smiles = "COc1cc(/C=C/C(=O)Nc2cccc(C[C@H](N)C(=O)O)c2)ccc1O"
measured = "low"

[[record]]
molecule_smiles = "CCCC(CCC)C(=O)Nc1cccc(C[C@H](N)C(=O)O)c1"
measured = "highest interactions"

[[record]]
molecule_smiles = "N[C@@H](Cc1cccc(C(=O)NCCc2ccc(O)c(O)c2)c1)C(=O)O"
measured = "highest interactions"


Prompt: What does the record list as interaction class with LAT1 (interaction and transportability) for N[C@@H](Cc1ccc(OC(=O)NCCc2ccc(O)c(O)c2)cc1)C(=O)O ?
Response: highest interactions

====

target: hLAT1/4F2hc (Homo sapiens); construct: Invitrogen (host cells); assay: Concentration-dependent cellular uptake into HEK-hLAT1 cells (LC-MS/MS, Michaelis-Menten); format: cell-based; details: difference in uptake HEK-hLAT1 vs HEK-MOCK, with docking poses; 2-100 μM curves
Reported Endpoint: interaction class with LAT1 (interaction and transportability)

[[record]]
molecule = "CCCN(CCC)S(=O)(=O)c1ccc(C(=O)Nc2cccc(C[C@H](N)C(=O)O)c2)cc1"
measured = "low"

[[record]]
molecule = "CC(C)Cc1ccc(C(C)C(=O)Nc2cccc(C[C@H](N)C(=O)O)c2)cc1 (stereo partly shown)"
measured = "medium interactions"

[[record]]
molecule = "CC(C(=O)Nc1cccc(C[C@H](N)C(=O)O)c1)c1cccc(C(=O)c2ccccc2)c1 (stereo partly shown)"
measured = "medium interactions"

